The measured values listed here are drawn from patent US11851431B2.

# assay_target: JAK2 (Homo sapiens)
# Sequence (O60674 whole entry): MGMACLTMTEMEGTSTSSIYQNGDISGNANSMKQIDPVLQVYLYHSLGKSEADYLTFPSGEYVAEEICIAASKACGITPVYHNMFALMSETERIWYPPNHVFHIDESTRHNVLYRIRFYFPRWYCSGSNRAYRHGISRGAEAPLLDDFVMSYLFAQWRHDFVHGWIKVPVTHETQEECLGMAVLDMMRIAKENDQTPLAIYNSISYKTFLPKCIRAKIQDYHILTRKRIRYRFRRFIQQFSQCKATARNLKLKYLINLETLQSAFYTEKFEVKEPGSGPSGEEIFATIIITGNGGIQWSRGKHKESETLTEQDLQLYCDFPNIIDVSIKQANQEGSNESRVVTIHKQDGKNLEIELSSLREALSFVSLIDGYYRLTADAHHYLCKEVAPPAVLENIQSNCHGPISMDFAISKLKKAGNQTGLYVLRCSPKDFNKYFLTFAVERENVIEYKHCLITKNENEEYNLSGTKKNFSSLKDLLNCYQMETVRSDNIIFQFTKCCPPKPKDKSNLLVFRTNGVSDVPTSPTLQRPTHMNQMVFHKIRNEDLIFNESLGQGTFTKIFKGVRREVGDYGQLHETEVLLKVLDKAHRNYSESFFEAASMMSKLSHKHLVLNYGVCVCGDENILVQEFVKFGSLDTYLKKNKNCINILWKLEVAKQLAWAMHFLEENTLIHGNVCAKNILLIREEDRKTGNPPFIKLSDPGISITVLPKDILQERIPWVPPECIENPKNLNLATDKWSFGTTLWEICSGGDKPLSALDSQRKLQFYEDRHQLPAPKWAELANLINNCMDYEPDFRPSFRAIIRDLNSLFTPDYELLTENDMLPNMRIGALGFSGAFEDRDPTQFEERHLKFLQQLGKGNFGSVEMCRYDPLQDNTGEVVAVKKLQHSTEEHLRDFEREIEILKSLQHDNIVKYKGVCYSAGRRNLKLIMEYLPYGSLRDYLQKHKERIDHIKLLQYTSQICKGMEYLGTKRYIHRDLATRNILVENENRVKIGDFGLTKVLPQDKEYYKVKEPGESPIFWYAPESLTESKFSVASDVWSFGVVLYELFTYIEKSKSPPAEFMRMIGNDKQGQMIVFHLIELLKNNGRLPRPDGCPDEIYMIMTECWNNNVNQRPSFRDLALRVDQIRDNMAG
Each entry below carries its recorded IC50.
Just the number in nM, nothing appended.

[[record]]
compound = "CCCCS(=O)(=O)NC12CC(n3cnc4cnc5[nH]ccc5c43)(C1)C2"
assay_target = "JAK2 (Homo sapiens)"
measure_name = "IC50"
units = "nM"
assay_value = 129

[[record]]
compound = "CC(C)(C#N)COC(=O)NC12CC(n3cnc4cnc5[nH]ccc5c43)(C1)C2"
assay_target = "JAK2 (Homo sapiens)"
measure_name = "IC50"
units = "nM"
assay_value = 965

[[record]]
compound = "N#CC1CCN(C(=O)NC23CC(n4cnc5cnc6[nH]ccc6c54)(C2)C3)C1 (stereo not drawn)"
assay_target = "JAK2 (Homo sapiens)"
measure_name = "IC50"
units = "nM"
assay_value = 526

[[record]]
compound = "O=C(CCC(F)(F)F)NC12CC(n3cnc4cnc5[nH]ccc5c43)(C1)C2"
assay_target = "JAK2 (Homo sapiens)"
measure_name = "IC50"
units = "nM"
assay_value = 167

[[record]]
compound = "CCS(=O)(=O)NC12CC(n3cnc4cnc5[nH]ccc5c43)(C1)C2"
assay_target = "JAK2 (Homo sapiens)"
measure_name = "IC50"
units = "nM"
assay_value = 291

[[record]]
compound = "CCCNC(=O)NC12CC(n3cnc4cnc5[nH]ccc5c43)(C1)C2"
assay_target = "JAK2 (Homo sapiens)"
measure_name = "IC50"
units = "nM"
assay_value = 199

[[record]]
compound = "CC(C)(C#N)CNC(=O)NC12CC(n3cnc4cnc5[nH]ccc5c43)(C1)C2"
assay_target = "JAK2 (Homo sapiens)"
measure_name = "IC50"
units = "nM"
assay_value = 355

[[record]]
compound = "O=S(=O)(NC12CC(n3cnc4cnc5[nH]ccc5c43)(C1)C2)N1CC(F)(F)C1"
assay_target = "JAK2 (Homo sapiens)"
measure_name = "IC50"
units = "nM"
assay_value = 50.8


Prompt line: # lookup: IC50 of COCCCS(=O)(=O)NC12CC(n3cnc4cnc5[nH]ccc5c43)(C1)C2
Response line: 849

Prompt line: Request: CNS(=O)(=O)C[C@H]1C[C@@H](n2cnc3cnc4[nH]ccc4c32)C1
Response line: 604

Prompt line: Request: O=S(=O)(NC12CC(n3cnc4cnc5[nH]ccc5c43)(C1)C2)C1CC1
Response line: 470

Prompt line: Request: N#CC1CN(S(=O)(=O)NC23CC(n4cnc5cnc6[nH]ccc6c54)(C2)C3)C1
Response line: 83.2

Prompt line: Request: N#CCS(=O)(=O)NC12CC(n3cnc4cnc5[nH]ccc5c43)(C1)C2
Response line: 146

Prompt line: Request: CCCC(=O)NC12CC(n3cnc4cnc5[nH]ccc5c43)(C1)C2
Response line: 441

Prompt line: Request: CCCS(=O)(=O)NC12CC(n3cnc4cnc5[nH]ccc5c43)(C1)C2
Response line: 141

Prompt line: Request: O=C(NCC(F)(F)F)NC12CC(n3cnc4cnc5[nH]ccc5c43)(C1)C2
Response line: 94.6

Prompt line: Request: O=C(NC12CC(n3cnc4cnc5[nH]ccc5c43)(C1)C2)N1CC(F)(F)C1
Response line: 678

----------
What follows is a record of IC50 for JAK1 (Homo sapiens).
Please report the result as a number followed by the unit.

[[record]]
molecule = "CCCS(=O)(=O)NC12CC(n3c(C)nc4cnc5[nH]ccc5c43)(C1)C2"
measure_name = "IC50"
assay_value = "13 nM"

[[record]]
molecule = "O=C(NCC(F)(F)F)NC12CC(n3cnc4cnc5[nH]ccc5c43)(C1)C2"
measure_name = "IC50"
assay_value = "8.5 nM"

[[record]]
molecule = "O=C(CC1CC1)NC12CC(n3cnc4cnc5[nH]ccc5c43)(C1)C2"
measure_name = "IC50"
assay_value = "14.8 nM"

[[record]]
molecule = "N#CCS(=O)(=O)NC12CC(n3cnc4cnc5[nH]ccc5c43)(C1)C2"
measure_name = "IC50"
assay_value = "14.4 nM"

[[record]]
molecule = "O=C(NC1CC1)NC12CC(n3cnc4cnc5[nH]ccc5c43)(C1)C2"
measure_name = "IC50"
assay_value = "235 nM"


Prompt line: # lookup: IC50 of O=S(=O)(NC12CC(n3cnc4cnc5[nH]ccc5c43)(C1)C2)N1CC(F)C1
Response line: 6.1 nM

Prompt line: Request: NC12CC(n3cnc4cnc5[nH]ccc5c43)(C1)C2 [Example 1j, 2,2,2-trifluoroacetate]
Response line: 278 nM

Prompt line: Request: O=S(=O)(CC1CC(F)(F)C1)NC12CC(n3cnc4cnc5[nH]ccc5c43)(C1)C2
Response line: 2.2 nM

----------
What follows is a record of pIC50 for UniProt:P23458.
In textbook form, pIC50 equals minus log to base ten of the concentration in mol/L.

Some solved entries appear below for comparison.
[[record]]
chemical_smiles = "COC1CN(C(=O)NC23CC(n4cnc5cnc6[nH]ccc6c54)(C2)C3)C1"
measure_name = "pIC50"
assay_value = 6.41

[[record]]
chemical_smiles = "O=C(NC12CC(n3cnc4cnc5[nH]ccc5c43)(C1)C2)OCC1CC1"
measure_name = "pIC50"
assay_value = 7.29

[[record]]
chemical_smiles = "CC(C)(C)OC(=O)NC12CC(n3cnc4cnc5[nH]ccc5c43)(C1)C2"
measure_name = "pIC50"
assay_value = 7.37


Then this molecule:
Prompt line: # lookup: pIC50 of N#CC1CN(S(=O)(=O)C[C@H]2C[C@@H](n3cnc4cnc5[nH]ccc5c43)C2)C1
Response line: 7.80

----------
What follows is a record of log10 IC50 for JAK1 (Homo sapiens).
Scale type: logarithmic (base 10). Underlying IC50 unit: nM.

Prompt line: What log10 IC50 appears in the records for this compound with JAK1 (Homo sapiens)? N#CCC(=O)NC12CC(n3cnc4cnc5[nH]ccc5c43)(C1)C2 [Example 11]
Sequence (P23458 whole entry): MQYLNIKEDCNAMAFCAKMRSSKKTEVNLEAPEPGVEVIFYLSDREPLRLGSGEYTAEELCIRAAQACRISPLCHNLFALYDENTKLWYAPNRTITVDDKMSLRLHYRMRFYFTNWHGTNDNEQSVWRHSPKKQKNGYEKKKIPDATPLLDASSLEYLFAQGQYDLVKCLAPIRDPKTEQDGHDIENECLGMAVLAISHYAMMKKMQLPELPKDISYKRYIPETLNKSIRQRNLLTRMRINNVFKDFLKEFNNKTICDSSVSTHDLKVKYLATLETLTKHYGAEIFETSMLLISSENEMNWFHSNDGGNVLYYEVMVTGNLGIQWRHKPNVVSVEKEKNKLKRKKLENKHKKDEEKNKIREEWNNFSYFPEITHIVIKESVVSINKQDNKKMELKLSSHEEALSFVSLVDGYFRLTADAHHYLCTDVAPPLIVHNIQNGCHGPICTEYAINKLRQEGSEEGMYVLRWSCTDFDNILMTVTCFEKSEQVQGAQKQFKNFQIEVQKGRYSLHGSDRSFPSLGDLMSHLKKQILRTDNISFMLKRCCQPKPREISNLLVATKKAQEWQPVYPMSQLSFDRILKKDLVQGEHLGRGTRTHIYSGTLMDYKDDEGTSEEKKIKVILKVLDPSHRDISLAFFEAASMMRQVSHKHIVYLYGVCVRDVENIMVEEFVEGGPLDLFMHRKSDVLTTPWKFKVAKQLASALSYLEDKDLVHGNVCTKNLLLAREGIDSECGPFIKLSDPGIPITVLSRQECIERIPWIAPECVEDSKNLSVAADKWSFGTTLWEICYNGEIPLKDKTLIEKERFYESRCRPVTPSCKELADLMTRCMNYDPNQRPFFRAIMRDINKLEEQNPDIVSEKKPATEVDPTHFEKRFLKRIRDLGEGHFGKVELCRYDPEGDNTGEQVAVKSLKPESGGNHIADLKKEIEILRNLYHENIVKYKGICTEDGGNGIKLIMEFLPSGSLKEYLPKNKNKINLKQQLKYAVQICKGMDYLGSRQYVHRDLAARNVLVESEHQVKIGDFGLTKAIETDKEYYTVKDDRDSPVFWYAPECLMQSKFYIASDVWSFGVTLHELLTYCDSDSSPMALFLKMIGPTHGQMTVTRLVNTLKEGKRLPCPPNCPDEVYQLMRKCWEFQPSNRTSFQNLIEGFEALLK
Response line: 1.07

----------
# measurement_notes: Human liver microsome stability study
# Type: in vitro ADME
# condition_context: liver microsomes, pH 7.4, 0.5 mg/mL microsomal protein, 1 μM test article, read-out: HLM Clint
# Method: Commercially available human liver microsome (vendor: Corning) were used for study the Phase I stability of test articles. Microsomes were pre-incubated with test compound or control compounds for 10 min at 37° C. in 100 mM potassium phosphate buffer, pH 7.4, 3.3 mM MgCl2. […] 80 μL of supernatant are taken into 96-well assay plates pre-added with 160 μL ultrapure water, and then analyzed by LC/MS/MS (Shimadzu LC30AD & API4000/API5000)). […]
measure_name: microsomal CLint at 1 μM

Some solved entries appear below for comparison.
[[record]]
chemical_smiles = "N#CC1CN(S(=O)(=O)NC23CC(n4cnc5cnc6[nH]ccc6c54)(C2)C3)C1"
assay_value = "2.11 µL/min/mg"

[[record]]
chemical_smiles = "O=S(=O)(NC12CC(n3cnc4cnc5[nH]ccc5c43)(C1)C2)N1CC(F)C1"
assay_value = "1.24 µL/min/mg"

[[record]]
chemical_smiles = "N#CCCC(=O)NC12CC(n3cnc4cnc5[nH]ccc5c43)(C1)C2"
assay_value = "0.77 µL/min/mg"

[[record]]
chemical_smiles = "O=S(=O)(CCC(F)(F)F)NC12CC(n3cnc4cnc5[nH]ccc5c43)(C1)C2"
assay_value = "2.72 µL/min/mg"


Prompt line: # lookup: microsomal CLint at 1 μM of CCCS(=O)(=O)NC12CC(n3cnc4cnc5[nH]ccc5c43)(C1)C2
Response line: 4.1 µL/min/mg

Prompt line: Request: O=C(CC1CC1)NC12CC(n3cnc4cnc5[nH]ccc5c43)(C1)C2
Response line: 1.01 µL/min/mg

Prompt line: Request: O=C(NC12CC(n3cnc4cnc5[nH]ccc5c43)(C1)C2)C1CC(F)(F)C1
Response line: 1.04 µL/min/mg

----------
What follows is a record of IC50 for UniProt:P23458.
Just the number in nM, nothing appended.

Some solved entries appear below for comparison.
[[record]]
chemical_smiles = "CCCS(=O)(=O)NC12CC(n3c([C@@H](C)O)nc4cnc5[nH]ccc5c43)(C1)C2"
assay_value = 48.7

[[record]]
chemical_smiles = "CCN(C)S(=O)(=O)NC12CC(n3cnc4cnc5[nH]ccc5c43)(C1)C2"
assay_value = 26.1


Then this compound:
Prompt line: # lookup: IC50 of O=S(=O)(NC12CC(n3cnc4cnc5[nH]ccc5c43)(C1)C2)N1CC(F)(F)C1
Response line: 3.4

----------
# measurement_notes: Rat pharmacokinetic study
# Format: in vivo, Sprague-Dawley rats
# condition_context: Sprague-Dawley, plasma, 1 mg/kg; Rat iv @1 mpk; 0.2 mg/mL in 5% DMSO + 15% Solutol HS 15 + 80% Saline; read-out: t½ (converted)
measure_name: half-life (min)
Just the number in min, nothing appended.

Prompt line: # lookup: half-life of CCCS(=O)(=O)NC12CC(n3cnc4cnc5[nH]ccc5c43)(C1)C2 [Example 1]
Response line: 27.6

----------
# measurement_notes: Rat pharmacokinetic study
# Assay type: in vivo, Sprague-Dawley rats
# condition_context: Sprague-Dawley, plasma, 1 mg/kg; Rat iv @1 mpk; 0.2 mg/mL in 4% DMSO + 15% Solutol HS 15 + 81% Saline
measure_name: AUC (ng·h/mL)
Just the number in ng·h/mL, nothing appended.

Prompt line: # lookup: AUC of N#CC1CN(S(=O)(=O)NC23CC(n4cnc5cnc6[nH]ccc6c54)(C2)C3)C1 [Example 4]
Response line: 402
